experiment: NOD1 signaling inhibitors, primary screen, cell-based, luminescence, uHTS (AID 1578); conditions: NOD1-driven NF-kB luciferase reporter cells, at 4 µM, stronger effect = higher value;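 note: HEK-293T reporter cells stimulated with the NOD1 agonist gamma-tri-DAP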
Among all 290,000 compounds or so, about 3,000 (1%) were called active. This excerpt belongs to a sample that is enriched for actives.
A collection of molecules and their measured inhibition
Please give a number only; it is taken to be in %.

Answered cases to consult:
{"columns": ["Molecule", "inhibition / %"],
 "data": [
  ["COc1ccc(-c2csc(/C(C#N)=C\\c3ccc(O)c([N+](=O)[O-])c3)n2)cc1OC", 78.3],
  ["CC(=O)NCc1ccc(C(=O)CCl)cc1", -4]
]}

-- ask Need inhibition of CC(C)(C)OC(=O)NC(Cc1ccccc1)C(=O)N1CCC(C(=O)NCC(=O)Nc2ccc(F)cc2)CC1 (centres undefined) , thanks.
-- reply -18

-- ask Thanks! And `COCc1c(C(=O)OCC(=O)c2c(N)n(CC(C)C)c(=O)n(C)c2=O)oc2ccccc12` ?
-- reply 32

-- ask Thanks! And `c1ccc(-c2ccccn2)nc1` ?
-- reply -28.9

-- ask Thanks! And Cc1nn(CC(=O)NCC(C)c2ccccc2)c(=O)c2cccn12 (centres undefined) ?
-- reply -28.8
